- System: HOP-92
- Assay explanation: Growth inhibition of human HOP92 cells assessed as growth inhibition at 10 uM by sulforhodamine B assay
- Format: functional
- Assay context: read-out: GI
Measurement label: inhibition of growth at 10 µM (%)
Give bare numbers, in %.

# Compound smiles, Measurement label, U, Reported
measured = [
    ("CC(C)=CC(=O)O[C@@H]1CC(C)(C)C[C@H]2C3=CC[C@@H]4[C@@]5(C)CC[C@H](O)C(C)(C)[C@@H]5CC[C@@]4(C)[C@]3(C)CC[C@@]12C(=O)O", "inhibition of growth at 10 µM", "%", 57),
    ("CC1(C)C[C@@H](O)[C@]2(C(=O)O)CC[C@]3(C)C(=CC[C@@H]4[C@@]5(C)CCC(=O)C(C)(C)[C@@H]5CC[C@]43C)[C@@H]2C1", "inhibition of growth at 10 µM", "%", 24.6),
    ("CC1(C)C[C@@H](O)[C@]2(C(=O)O)CC[C@]3(C)C(=CC[C@@H]4[C@@]5(C)C/C(=C\\C=C\\c6ccccc6)C(=O)C(C)(C)[C@@H]5CC[C@]43C)[C@@H]2C1", "inhibition of growth at 10 µM", "%", 50.8),
    ("CC(C)=CC(=O)O[C@@H]1CC(C)(C)C[C@H]2C3=CC[C@@H]4[C@@]5(C)CCC(=O)C(C)(C)[C@@H]5CC[C@@]4(C)[C@]3(C)CC[C@@]12C(=O)O", "inhibition of growth at 10 µM", "%", 71.6),
    ("COc1cc(/C=C2\\C[C@]3(C)[C@H]4CC=C5[C@@H]6CC(C)(C)C[C@@H](O)[C@]6(C(=O)O)CC[C@@]5(C)[C@]4(C)CC[C@H]3C(C)(C)C2=O)ccc1O", "inhibition of growth at 10 µM", "%", 29.1),
]

// query inhibition of growth at 10 µM value for entry C/C=C(/C)C(=O)O[C@@H]1CC(C)(C)C[C@H]2C3=CC[C@@H]4[C@@]5(C)CCC(=O)C(C)(C)[C@@H]5CC[C@@]4(C)[C@]3(C)CC[C@@]12C(=O)O
56.3

---

Would you kindly list growth at 10 µM for each of these compounds?
- Test system: UACC-62
- Assay explanation: Growth inhibition of human UACC62 cells assessed as cell growth at 10 uM by sulforhodamine B assay
- Type: functional
- Assay context: read-out: Activity
Numbers only, in %.

# Compound smiles, Target entity, growth at 10 µM / %
measured = [
    ("CC1(C)C[C@@H](O)[C@]2(C(=O)O)CC[C@]3(C)C(=CC[C@@H]4[C@@]5(C)CC[C@H](O)C(C)(C)[C@@H]5CC[C@]43C)[C@@H]2C1", "UACC-62", 88.2),
    ("C/C=C(/C)C(=O)O[C@@H]1CC(C)(C)C[C@H]2C3=CC[C@@H]4[C@@]5(C)CCC(=O)C(C)(C)[C@@H]5CC[C@@]4(C)[C@]3(C)CC[C@@]12C(=O)O", "UACC-62", 49.9),
]

// query growth at 10 µM value for entry C/C=C(/C)C(=O)O[C@@H]1CC(C)(C)C[C@H]2C3=CC[C@@H]4[C@@]5(C)CC[C@H](O)C(C)(C)[C@@H]5CC[C@@]4(C)[C@]3(C)CC[C@@]12C(=O)O
-28.1
